Values from paper PMC7826789

# Tested on: CDKL3;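 also: KINOMEscan scanMAX binding as percent activity remaining versus control; lower means stronger binding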
# applied_conditions: Compound Concentration (nM):1000
readout_kind: Percent Control (%)
Express it in %; write the number only.

These recorded examples may help you get a feel for the data.
compound | endpoint_unit | value_measured
COc1cc(/C=N/Nc2ncnc3[nH]ncc23)ccc1O [GW578748X] | % | 97
Cl.O=C(O[C@H]1CN[C@H](C#Cc2cc3ncnc(Nc4ccc5c(cnn5Cc5ccccc5)c4)c3s2)C1)N1CCOCC1 [GSK200398A] | % | 100
COc1ccc2c(-c3ccnc(Nc4cccc(OC(F)(F)F)c4)n3)cnn2n1 [GW810372X] | % | 0
NS(=O)(=O)c1ccc(N/N=C2\C(=O)Nc3ccc(Cl)cc32)cc1 [GW280670X] | % | 100

Input COc1ccc2cc(-c3c(-c4ccncc4)nc(-c4ccc(S(C)(=O)=O)cc4C)n3C)ccc2c1 [SB-633825] , output reported Percent Control.
86

Input O=C1Nc2ccc(C(=O)c3ccco3)cc2C1=Cc1cc(Cl)c(O)c(Cl)c1 [GW406108X] , output reported Percent Control.
100

Input COc1cccc(-c2c[nH]c3c(N/N=C/c4ccncc4)ncnc23)c1 [GW814408X] , output reported Percent Control.
8

Input CCS(=O)(=O)c1ccc(OC)c(Nc2ncc(-c3cccc(OC)c3)o2)c1 [GW580509X] , output reported Percent Control.
100
